# Test system: U2OS
# Experimental protocol: Multiplex assay against U2OS
# Type: toxicity, cell-based
# Condition details: human, 12 h, 10 µM, compound concentration 10 uM, replicate 2
Each entry falls into one class according to its Population Apoptotic (%); the ranges are low bin = under 20%, mid bin = from 20% up to 80%, high bin = 80% and over

Check out these entries, answers already filled in.
1) CN(c1cc(C(F)(F)F)nc(OCCC(=O)O)n1)c1cccc2c1CCC2 : low bin
2) c1ccc(-c2oc3ncnc(NC[C@@H]4CCCO4)c3c2-c2ccccc2)cc1 : high bin
3) CN1C(=O)[C@@H](NC(=O)c2cc3ccccc3[nH]2)N=C(c2ccccc2)c2ccccc21 [DEVAZEPIDE] : mid bin
4) Cc1c(P(=S)(c2ccccc2)c2ccccc2)n2ccccc2[n+]1C/C=C/c1ccccc1.[Br-] : high bin
5) Oc1cccc(-c2nc(N3CCOCC3)c3oc4ncccc4c3n2)c1 : mid bin

## Task State the band of CC[C@@]1(O)C(=O)OCc2c1cc1n(c2=O)Cc2cc3ccccc3nc2-1
## Result low bin

## Task GET /class?item= CC(C)[C@H](CO)Nc1nc(Nc2cccc(Cl)c2)c2ncn(C(C)C)c2n1
## Result high bin

## Task Where would Cc1ccc(NC(=O)Nc2cc(C(F)(F)F)ccc2F)cc1Nc1ccc2c(c1)NC(=O)/C2=C\c1ccc[nH]1 land among the classes by reported Population Apoptotic (%)?
## Result mid bin
